- System: PC-3
- assay.overview: Induction of apoptosis in human PC3 cells assessed as viable cells at 10 uM after 48 hrs by Annexin V-FITC/propidium iodide double staining based flow cytometry (reference value: 78.9%)
- Assay type: functional
- condition.description: PC-3, 48 h, read-out: Activity
Binarize viability at 10 µM at 50%; below is 1, at or above is 0.

1) CN1c2c(ccc3cc4c(cc23)OCO4)-c2ccc3c(c2C1C[N+](=O)[O-])OCO3 (configuration not stated)    1
2) COC(=O)C(C(=O)OC)C1c2c(ccc(OC)c2OC)-c2ccc3cc4c(cc3c2N1C)OCO4 (configuration not stated)    0
3) CCOC(=O)C(C(=O)OCC)C1c2c(ccc(OC)c2OC)-c2ccc3cc4c(cc3c2N1C)OCO4 (configuration not stated)    0
4) CCOC(=O)C(C(=O)OCC)C1c2c(ccc3c2OCO3)-c2ccc3cc4c(cc3c2N1C)OCO4 (configuration not stated)    0

Here is another compound to look at.
Ask: Confirm or reject: viability at 10 µM of COC(=O)C(C(=O)OC)C1c2ccccc2-c2ccc3ccccc3c2N1C (configuration not stated) lies strictly below 50%
Result: 1
